Target: GIST430/654 cell line expressing mutated constitutively active cKIT receptor tyrosine kinase (Δ560-576 deletion and V654A point mutation) (Homo sapiens, UniProt P10721, DEL560-576/V654A)
Construct: endogenous in cells; host or cells: GIST430/654 cells
Sequence (P10721 with tags, fused parts or gaps DEL560-576/V654A): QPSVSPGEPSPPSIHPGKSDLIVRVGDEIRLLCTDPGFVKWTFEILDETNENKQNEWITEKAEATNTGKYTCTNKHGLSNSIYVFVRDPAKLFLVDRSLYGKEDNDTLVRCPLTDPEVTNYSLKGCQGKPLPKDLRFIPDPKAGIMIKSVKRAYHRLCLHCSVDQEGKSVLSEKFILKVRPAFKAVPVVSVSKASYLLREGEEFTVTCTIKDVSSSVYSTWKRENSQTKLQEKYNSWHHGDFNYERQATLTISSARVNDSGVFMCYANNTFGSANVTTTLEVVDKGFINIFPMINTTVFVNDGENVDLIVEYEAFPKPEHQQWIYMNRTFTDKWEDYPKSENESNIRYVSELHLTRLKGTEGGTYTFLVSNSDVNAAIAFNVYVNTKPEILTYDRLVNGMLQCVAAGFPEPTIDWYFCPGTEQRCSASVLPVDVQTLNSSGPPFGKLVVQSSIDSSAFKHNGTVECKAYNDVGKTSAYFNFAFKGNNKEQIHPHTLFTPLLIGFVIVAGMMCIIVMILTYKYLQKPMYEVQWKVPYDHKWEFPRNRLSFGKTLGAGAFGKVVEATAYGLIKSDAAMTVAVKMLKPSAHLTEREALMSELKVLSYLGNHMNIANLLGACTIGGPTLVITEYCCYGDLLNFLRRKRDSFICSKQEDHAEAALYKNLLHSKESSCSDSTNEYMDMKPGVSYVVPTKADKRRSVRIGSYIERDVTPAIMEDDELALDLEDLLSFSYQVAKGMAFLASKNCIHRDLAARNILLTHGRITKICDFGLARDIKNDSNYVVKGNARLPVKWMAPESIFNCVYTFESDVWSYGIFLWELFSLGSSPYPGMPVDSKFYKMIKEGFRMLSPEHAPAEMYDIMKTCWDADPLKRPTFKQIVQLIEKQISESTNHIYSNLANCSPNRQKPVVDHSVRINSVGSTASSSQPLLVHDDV
Test: Cellular cKIT autophosphorylation (phospho-Y307-cKIT, Luminex bead assay) in GIST430/654 cells
Format: cell-based
Details: compounds 45 min, read-out: GIST 430/654 IC50
Description: Assay Principle for Cellular Testing of cKIT Mutant Inhibitors […] Counts from samples treated with compounds were calculated as percent of control from solvent treated (0.3% DMSO) samples. Dose-response curves were fitted and IC50 values were determined using Genedata Screener software.
METRIC: IC50 (nM)

Below: 3 compounds and their reported IC50.
{"MOLECULE": "COc1ccn2c(-c3cc(NCc4ccc(-c5cnn(C)n5)cn4)ncn3)cnc2c1", "ASSAY_RESULT": 510}
{"MOLECULE": "Cn1cc(-c2ccc(COc3cc(-c4cnc5cc(OCCN6CCC(F)(F)C6)ccn45)ncn3)cc2)cn1", "ASSAY_RESULT": 260}
{"MOLECULE": "Cn1cc(-c2ccc(CNc3cc(-c4cnc5cc(OCC6CC6)ccn45)ncn3)cc2)cn1", "ASSAY_RESULT": 150}

[A] Cn1ncc(-c2ccc(CNc3cc(-c4cnc5cc(OCCCN6CCC6)ccn45)ncn3)cc2)n1
[B] CN1CCN(CCOc2ccn3c(-c4cc(NCc5ccc(-c6cnn(C)c6)cc5)ncn4)cnc3c2)CC1
# input Could you tell me which of A and B has the lower IC50 reading? The response must carry the label of the picked entry.
# output B
(B: 34 nM, A: 52 nM)

[1] COc1ccn2c(-c3cc(NCc4ccc(-c5cnn(C)c5CO)cc4)ncn3)cnc2c1
[2] Cn1cc(-c2ccc(CNc3cc(-c4cnc5cc(OCCN6C[C@@H](F)[C@@H](F)C6)ccn45)ncn3)cc2)cn1
# input Which of the two items, 1 and 2 , has the greater recorded IC50? The response must carry the label of the picked entry.
# output 1
(1: 180 nM, 2: 78 nM)
